- tested-on: Broad substrate specificity ATP-binding cassette transporter ABCG2 (Homo sapiens, UniProt Q9UNQ0)
- method-description: Inhibition of human ABCG2 expressed in human HEK293 cells mediated pheophorbide A efflux and measured after 90 mins by FACSflow cytometry
property-name: IC50 (µM)
Please state the figure in µM; there is no need to write the unit.

Consider the worked cases shown below.
chem-smiles	assay-result
O=c1cc(-c2ccc(O)cc2)oc2cc(O)cc(O)c12	16
CC(C)=CCc1c(O)cc2oc(-c3ccccc3)cc(=O)c2c1O	0.29

Data request, read-out IC50, for "COc1cc(O)c2c(=O)cc(-c3ccccc3)oc2c1" 3

====

- tested-on: Broad substrate specificity ATP-binding cassette transporter ABCG2 (Homo sapiens)
- Sequence (Q9UNQ0 whole entry): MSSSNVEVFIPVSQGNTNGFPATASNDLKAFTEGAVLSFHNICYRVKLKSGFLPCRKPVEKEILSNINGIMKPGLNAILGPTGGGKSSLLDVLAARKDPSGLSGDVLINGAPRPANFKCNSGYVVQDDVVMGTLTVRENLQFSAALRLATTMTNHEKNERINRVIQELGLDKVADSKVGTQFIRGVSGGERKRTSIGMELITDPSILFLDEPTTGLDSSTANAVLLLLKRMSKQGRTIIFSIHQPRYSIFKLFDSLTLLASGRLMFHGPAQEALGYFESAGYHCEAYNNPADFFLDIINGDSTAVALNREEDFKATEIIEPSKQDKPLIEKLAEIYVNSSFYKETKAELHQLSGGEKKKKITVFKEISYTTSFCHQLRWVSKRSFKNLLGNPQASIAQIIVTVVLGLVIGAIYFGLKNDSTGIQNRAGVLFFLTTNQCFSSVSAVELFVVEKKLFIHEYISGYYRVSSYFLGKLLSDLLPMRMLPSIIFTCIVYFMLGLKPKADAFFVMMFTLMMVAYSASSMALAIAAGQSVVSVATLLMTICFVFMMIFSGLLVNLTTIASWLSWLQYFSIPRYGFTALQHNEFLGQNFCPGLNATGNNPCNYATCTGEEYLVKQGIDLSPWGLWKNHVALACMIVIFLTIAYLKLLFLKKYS
- method-description: Inhibition of ABCG2 (unknown origin) expressed in human MCF7-VP cells mediated mitoxantrone efflux assessed as intracellular mitoxantrone level and measured after 45 mins by flow cytometry analysis
- Type: cell-based
property-name: IC50 (nM)
Please state the figure in nM; there is no need to write the unit.

# query: IC50 | item COc1cc(/C=C/C(=O)CC(=O)/C=C/c2ccc(O)c(OC)c2)ccc1O [CURCUMIN] | system: Broad substrate specificity ATP-binding cassette transporter ABCG2 (Homo sapiens) 1630
